- Assayed target: PARP-1 (Homo sapiens, UniProt P09874)
- Construct: purchased Trevigen (Gaithersburg, Md.); host or cells: E. coli
- Sequence (P09874 whole entry): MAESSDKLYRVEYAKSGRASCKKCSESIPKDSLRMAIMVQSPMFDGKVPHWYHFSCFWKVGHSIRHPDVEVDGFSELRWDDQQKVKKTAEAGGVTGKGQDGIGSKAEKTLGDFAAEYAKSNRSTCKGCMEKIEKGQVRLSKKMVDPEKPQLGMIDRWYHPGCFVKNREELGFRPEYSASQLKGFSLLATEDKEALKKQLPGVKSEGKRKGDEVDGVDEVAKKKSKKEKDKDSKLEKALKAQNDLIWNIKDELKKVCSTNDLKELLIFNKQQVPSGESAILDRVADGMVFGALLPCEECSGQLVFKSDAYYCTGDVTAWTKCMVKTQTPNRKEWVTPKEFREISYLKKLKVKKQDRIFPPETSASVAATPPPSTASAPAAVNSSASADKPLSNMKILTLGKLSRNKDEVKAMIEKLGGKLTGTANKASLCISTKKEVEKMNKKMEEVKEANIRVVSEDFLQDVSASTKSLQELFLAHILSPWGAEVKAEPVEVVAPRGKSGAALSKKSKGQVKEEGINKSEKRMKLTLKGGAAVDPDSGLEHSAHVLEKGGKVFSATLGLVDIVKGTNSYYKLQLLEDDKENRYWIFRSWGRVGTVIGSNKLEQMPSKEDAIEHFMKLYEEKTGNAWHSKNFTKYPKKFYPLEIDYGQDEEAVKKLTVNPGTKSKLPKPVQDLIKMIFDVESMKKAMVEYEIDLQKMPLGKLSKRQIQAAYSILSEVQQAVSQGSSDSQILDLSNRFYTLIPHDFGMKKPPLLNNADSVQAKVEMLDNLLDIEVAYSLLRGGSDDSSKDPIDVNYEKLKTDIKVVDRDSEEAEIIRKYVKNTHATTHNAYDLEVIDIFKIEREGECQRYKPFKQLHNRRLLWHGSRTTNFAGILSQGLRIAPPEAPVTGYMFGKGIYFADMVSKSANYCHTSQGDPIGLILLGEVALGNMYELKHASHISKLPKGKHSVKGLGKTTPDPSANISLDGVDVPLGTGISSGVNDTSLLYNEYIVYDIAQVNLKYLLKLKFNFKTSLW
- Experimental details: PARP1 assay (inhibition of PARP, [3H]-NAD+ / biotinylated histone H1, FlashPlate scintillation)
- Type: biochemical
Property: Ki
Your reply should be a number followed by the unit it is expressed in.

> print(dat)
                                   molecule  property  recorded.measurement
1     O=c1[nH]c2cc(CNCc3ccccc3)ccc2n2cccc12        Ki              0.127 µM
2        O=c1[nH]c2cc(CN3CCCC3)ccc2n2cccc12        Ki              0.006 µM
3  CN(C)Cc1ccc2c(c1)NC(=O)C1CCCN21 (stereo not shown)        Ki               0.06 µM

Consider the record given below.
Data point: O=c1[nH]c2ccc(CNC3CC3)cc2n2cccc12 ; Ki = 0.032 µM

* * *

- Assayed target: PARP-1 (Homo sapiens, UniProt P09874)
- Construct: purchased Trevigen (Gaithersburg, Md.); host or cells: E. coli
- Experimental details: PARP1 assay (inhibition of PARP, [3H]-NAD+ / biotinylated histone H1, FlashPlate scintillation)
- Format: biochemical
- Reported conditions: recombinant human PARP, 1 nM enzyme, 1.5 μM [3H]-NAD+; inhibition curves at various substrate concentrations; read-out: PARP-1 (Ki)
pKi: −log10 of the molar value.
Outcome: true (1) for pKi of at least 7; false (0) for anything lower.

> print(dat)
                                   molecule  assigned.label
1  CN1CCN(CCCNC(=O)c2ccc3c(c2)[nH]c(=O)c2cccn23)CC1 [Example 66]        true (1)

Task: Reported pKi reaches at least 7 for O=c1[nH]c2ccc(CNC3CCC3)cc2n2cccc12 [Example 16] ?
Result: true (1)

Task: Reported pKi reaches at least 7 for CS(=O)(=O)N(Cc1ccc2[nH]c(=O)c3cccn3c2c1)C1CC1 [Example 51] ?
Result: false (0)

Task: Reported pKi reaches at least 7 for O=c1[nH]c2cc(CNCCN3CCCCC3)ccc2n2cccc12 [Example 71] ?
Result: false (0)

* * *

- Assayed target: PARP in C41 cells (Homo sapiens, UniProt P09874)
- Construct: endogenous in cells
- Experimental details: Cellular PARP assay (PAR formation after H2O2 DNA damage, anti-PAR immunofluorescence)
- Reported conditions: compound 30 minutes, then 1 mM H2O2 for 10 minutes, FITC signal normalized with DAPI, read-out: Cell, EC50
Property: pEC50
Answers are plain numbers, as −log10 of the molar value.

Please review the following examples before continuing.
> print(dat)
                                   compound  property  recorded.measurement
1  CN1CCN(CCCNC(=O)c2ccc3c(c2)[nH]c(=O)c2cccn23)CC1 [Example 66]     pEC50                  7.49
2  O=C(c1ccc2c(c1)[nH]c(=O)c1cccn12)N1CCCCC1 [Example 85]     pEC50                  7.64
3  O=c1[nH]c2ccc(CNC3CC3)cc2n2cccc12 [Example 12]     pEC50                  7.89

Give me pEC50 for each of these compounds, listed below.
1. CC(C)NCc1ccc2[nH]c(=O)c3cccn3c2c1 [Example 13]
2. O=c1[nH]c2cc(CN3CCCC3)ccc2n2cccc12 [Example 7]
3. NC1CCN(Cc2ccc3c(c2)[nH]c(=O)c2cccn23)CC1 [Example 86]
4. CN(C)Cc1ccc2c(c1)NC(=O)C1CCCN21 (stereo not shown) [Example 44]

Result:
1. 7.43
2. 8.27
3. 6.69
4. 6.84
